tested target: tau (Homo sapiens, UniProt P10636)
Sequence (P10636 623-695 limits assumed): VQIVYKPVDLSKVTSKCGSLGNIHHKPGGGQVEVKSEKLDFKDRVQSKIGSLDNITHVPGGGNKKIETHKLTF
experimental details: MCE Phenols Library screening, tau biosensor cell seeding assay (AvZ)
Assay type: cell-based
experimental setup: Z score, replicate 1
endpoint label: Z repl 1

>  <compound>
CC(C)=CC[C@@H](OC(=O)CC(C)(C)O)C1=CC(=O)c2c(O)ccc(O)c2C1=O [?-Hydroxyisovalerylshikonin]

>  <tested target>
tau (Homo sapiens, UniProt P10636)

>  <endpoint label>
Z repl 1

>  <observed measurement>
-0.737

$$$$
>  <compound>
O=c1cc(-c2ccc(O)cc2)oc2cc(O)ccc12 [7,4'-Dihydroxyflavone]

>  <tested target>
tau (Homo sapiens, UniProt P10636)

>  <endpoint label>
Z repl 1

>  <observed measurement>
0.712

$$$$
>  <compound>
Oc1cc2c(cc1O)[C@@H]1c3ccc(O)c(O)c3OC[C@]1(O)C2 [Hematoxylin]

>  <tested target>
tau (Homo sapiens, UniProt P10636)

>  <endpoint label>
Z repl 1

>  <observed measurement>
-1.7

$$$$
>  <compound>
COc1ccc(-c2oc3c(CC=C(C)C)c(O[C@@H]4O[C@H](CO)[C@@H](O)[C@H](O)[C@H]4O)cc(O)c3c(=O)c2O[C@@H]2O[C@@H](C)[C@H](O)[C@@H](O)[C@H]2O)cc1 [Icariin]

>  <tested target>
tau (Homo sapiens, UniProt P10636)

>  <endpoint label>
Z repl 1

>  <observed measurement>
0.381

$$$$
>  <compound>
Oc1cc(O)c2cc(O)c(-c3ccc(O)c(O)c3)[o+]c2c1.[Cl-] [Cyanidin (Chloride)]

>  <tested target>
tau (Homo sapiens, UniProt P10636)

>  <endpoint label>
Z repl 1

>  <observed measurement>
-1.789

$$$$
>  <compound>
O=C1C[C@@H](c2ccc(O)c(O)c2)Oc2c1ccc(O[C@@H]1O[C@H](CO)[C@@H](O)[C@H](O)[C@H]1O)c2O [Flavanomarein]

>  <tested target>
tau (Homo sapiens, UniProt P10636)

>  <endpoint label>
Z repl 1

>  <observed measurement>
-0.895

$$$$
>  <compound>
OC[C@H]1O[C@@H](Oc2ccc(O)cc2)[C@H](O)[C@@H](O)[C@@H]1O [?-Arbutin]

>  <tested target>
tau (Homo sapiens, UniProt P10636)

>  <endpoint label>
Z repl 1

>  <observed measurement>
1.599

$$$$
